Test system: aqueous peroxyl radicals generated by AAPH in human plasma
Assay: Consumption of endogenous plasma antioxidants induced by AAPH (HPLC)
Conditions: AAPH 20 mM for 120 min, no EGCG (control)
Below: a set of entries, each annotated with reported percentage remaining / Residual Amount (%).
Express your answer in %, writing the number without its unit.

Cc1c(C)c2c(c(C)c1O)CC[C@@](C)(CCC[C@H](C)CCC[C@H](C)CCCC(C)C)O2; 3.86

Query :: Given `CC1=C(/C=C/C(C)=C/C=C/C(C)=C/C=C/C=C(C)/C=C/C=C(C)/C=C/C2=C(C)CCCC2(C)C)C(C)(C)CCC1` , state its recorded percentage remaining / Residual Amount (%).
Result :: 28.89

Query :: Given `CC(C)=CCC/C(C)=C/C=C/C(C)=C/C=C/C(C)=C/C=C/C=C(C)/C=C/C=C(C)/C=C/C=C(\C)CCC=C(C)C` , state its recorded percentage remaining / Residual Amount (%).
Result :: 8.49

Query :: Given `CC1=C(/C=C/C(C)=C/C=C/C(C)=C/C=C/C=C(C)/C=C/C=C(C)/C=C/C2=C(C)C[C@@H](O)CC2(C)C)C(C)(C)C[C@H](O)C1` , state its recorded percentage remaining / Residual Amount (%).
Result :: 17.50

Query :: Given `CC1=C[C@H](O)CC(C)(C)[C@H]1/C=C/C(C)=C/C=C/C(C)=C/C=C/C=C(C)/C=C/C=C(C)/C=C/C1=C(C)C[C@@H](O)CC1(C)C` , state its recorded percentage remaining / Residual Amount (%).
Result :: 12.82

Query :: Given `CC1=C(/C=C/C(C)=C/C=C/C(C)=C/C=C/C=C(C)/C=C/C=C(C)/C=C/C2=C(C)C[C@@H](O)CC2(C)C)C(C)(C)CCC1` , state its recorded percentage remaining / Residual Amount (%).
Result :: 18.94

The values you see were collected from patent US20020182736A1.
